Data provenance is ChEMBL document CHEMBL3988442.

Overview of reported Percent Effect across a group of compounds:
target: AMP-activated protein kinase, AMPK (Homo sapiens) (UniProt P54646+O43741+P54619+Q9UGJ0+Q9Y478+Q13131+Q9UGI9); test: AMP-dependent Kinase enzyme assay. An in vitro enzyme assay that detects ADP turnover that is directly proportional to AMPK activity. This uses naive AMPK that is activated during the assay with MK-8722; assay type: functional; design: scale not given: direction of the effect not stated beside the values; conditions: 30 µM
// units = %; emit number, no label

Some entries whose results are on file:
Nc1nc(CN2CCCC(Cn3cncn3)C2)nc2ccccc12 (stereo unspecified) ... -3.95
CCn1nc(C)c2nc(C(C)C)nc(N3CCCCC3)c21 ... 1.61
Cc1ccccc1CN1CCN(CC(=O)Nc2cccnc2)CC1 ... -360

Entry N#Cc1cccc(CS(=O)(=O)NCCC(O)c2ccccc2)c1 (stereo unspecified) , Percent Effect reported as -6.17

Measured Percent Effect, COCCO[C@H]1CCN(Cc2cccs2)[C@H]1Cc1cccnc1 : -12.3

The measured Percent Effect associated with COc1cnc(C2(O)CCN(C(=O)c3ccncc3)CC2)c(OC)n1 reads 8.66

Summary for this compound, Cc1cc(C(=O)NCc2ccnc(N(C)C)c2)c(C)o1 : Percent Effect is -3.99

Record COc1ccc(C(=O)N2CCC(Nc3cccnn3)CC2)c(OC)c1 . Reported Percent Effect: 3.46
